Tested on: MCF7
assay notes: Antiproliferative activity against human MCF7 cells assessed as reduction in cell viability after 48 hrs by MTT assay
Format: functional, cell-based
condition description: MCF7, 48 h
measure name: IC50 (µM)
Write it as a number; the unit µM goes unstated.

Solved entries:
[
  {
    "smiles entry": "CC[Si](CC)(CC)OC/C1=C/C[C@](C)(CCC=C(C)C)/C=C/[C@@H](OC(=O)C=C(C)C)[C@](C)(O)/C=C/C1=O",
    "IC50 [µM]": 3.15
  },
  {
    "smiles entry": "CC(C)=CCC[C@]1(C)/C=C/[C@@H](OC(=O)C=C(C)C)[C@](C)(O)/C=C/C(=O)/C(C(=O)N2CCOCC2)=C\\C1",
    "IC50 [µM]": 3.36
  },
  {
    "smiles entry": "CC(C)=CCC[C@]1(C)/C=C/[C@@H](OC(=O)C=C(C)C)[C@](C)(O)/C=C/C(=O)/C(CN2CCCC2)=C\\C1",
    "IC50 [µM]": 0.22
  },
  {
    "smiles entry": "CC(C)=CCC[C@]1(C)/C=C/[C@@H](OC(=O)C=C(C)C)[C@](C)(O)/C=C/C(=O)/C(C(=O)N2CCN(C)CC2)=C\\C1",
    "IC50 [µM]": 6.3
  },
  {
    "smiles entry": "CC(=O)OC/C1=C/C[C@](C)(CCC=C(C)C)/C=C/[C@@H](OC(=O)C=C(C)C)[C@](C)(O)/C=C/C1=O",
    "IC50 [µM]": 4.51
  }
]

# compound "CC(C)=CCC[C@]1(C)/C=C/[C@@H](OC(=O)C=C(C)C)[C@](C)(O)/C=C/C(=O)/C(CF)=C\C1" ; its IC50 = 0.24

# compound "CSC(=S)OC/C1=C/C[C@](C)(CCC=C(C)C)/C=C/[C@@H](OC(=O)C=C(C)C)[C@](C)(O)/C=C/C1=O" ; its IC50 = 0.9

# compound "COC/C1=C/C[C@](C)(CCC=C(C)C)/C=C/[C@@H](OC(=O)C=C(C)C)[C@](C)(O)/C=C/C1=O" ; its IC50 = 4.13

# compound "CC(C)=CCC[C@]1(C)/C=C/[C@@H](OC(=O)C=C(C)C)[C@](C)(O)/C=C/C(=O)/C(CO[Si](c2ccccc2)(c2ccccc2)C(C)(C)C)=C\C1" ; its IC50 = 15.8

# compound "CC(C)=CCC[C@](C)(/C=C/[C@@H](OC(=O)C=C(C)C)[C@](C)(O)/C=C/C(=O)/C=C/N1CCN(C)CC1)CC=O" ; its IC50 = 8.84
